- methodNotes: Rough solubility at room temperature
- Assay type: physicochemical
- experimentalParameters: organic solvent or mixture, thermodynamic from solid, THF

# compound, solubility
records = [
    ("O=C1CO[C@H](c2cn(-c3ccc(Br)cc3)nc2-c2ccc(F)cc2)N1CCc1ccc2[nH]c(=O)[nH]c2c1 [Crystal form A]", "> 40.4 mg/mL"),
]

---

- methodNotes: Rough solubility at room temperature
- Assay type: physicochemical
- experimentalParameters: organic solvent or mixture, thermodynamic from solid, 1,4-Dioxane

# compound, solubility
measured = [
    ("O=C1CO[C@H](c2cn(-c3ccc(Br)cc3)nc2-c2ccc(F)cc2)N1CCc1ccc2[nH]c(=O)[nH]c2c1 [Crystal form A]", "6.9 to 20.7 mg/mL"),
]
